# TARGET: transketolase (TKT) (Homo sapiens, UniProt P29401)
# Sequence (P29401 1-623): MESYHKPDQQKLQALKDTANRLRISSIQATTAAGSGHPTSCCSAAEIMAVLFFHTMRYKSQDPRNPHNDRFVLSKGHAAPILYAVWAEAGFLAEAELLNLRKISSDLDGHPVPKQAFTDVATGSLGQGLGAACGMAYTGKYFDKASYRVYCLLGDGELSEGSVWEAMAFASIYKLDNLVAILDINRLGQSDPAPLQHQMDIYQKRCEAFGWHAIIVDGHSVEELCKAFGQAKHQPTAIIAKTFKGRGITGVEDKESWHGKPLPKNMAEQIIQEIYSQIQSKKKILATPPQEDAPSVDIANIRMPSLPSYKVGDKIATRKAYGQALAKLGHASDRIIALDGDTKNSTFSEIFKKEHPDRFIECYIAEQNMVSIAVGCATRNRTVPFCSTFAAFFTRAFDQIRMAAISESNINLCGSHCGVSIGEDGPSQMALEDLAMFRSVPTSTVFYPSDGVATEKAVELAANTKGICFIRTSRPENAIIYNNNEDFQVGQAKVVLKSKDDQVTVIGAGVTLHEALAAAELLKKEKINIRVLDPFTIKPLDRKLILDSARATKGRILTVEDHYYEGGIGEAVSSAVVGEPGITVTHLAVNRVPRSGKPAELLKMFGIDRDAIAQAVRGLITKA
# METHOD_SUMMARY: Bio-layer interferometry with biotinylated TKT on SA biosensors; supported by DARTS and CETSA in A549/DDP cells
# Format: binding
OBSERVATION_TYPE: pKd
Give bare numbers, as −log10 of the molar value.

Give pKd (transketolase (TKT) (Homo sapiens, UniProt P29401)) of the following molecule: CN1C(=O)[C@@]23C[C@]4([C@]56C[C@@]78SS[C@@](CO)(C(=O)N7[C@H]5Nc5ccccc56)N(C)C8=O)c5ccccc5N[C@@H]4N2C(=O)[C@]1(CO)SS3 [chaetocin]
4.20
